System: MIWI (PIWIL1) piRISC loaded with piRNA #2 (30 nt);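 note: 1 nM active piRISC with 0.1 nM target library at 33 °C single turnover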
Test: pre-steady-state target cleavage rate (min^-1); higher = faster piRNA-guided slicing of the target
Conditions: guide: piRNA #2 5'p-UUAGGUAACCCAGUAGAUCCAGAGGAAUUC; auxiliary factor: 500 nM mouse GTSF1
Whole data set: some 5,500 sequences, median “pre-steady-state target cleavage rate” near 0.1, cut for the highest 2% near 0.64. This excerpt belongs to a sample that is enriched for the highest values.
Note to self: values exactly at 0.4 are 1 (yes). So pre-steady-state target cleavage rate at or above 0.4 is 1 (yes), below is 0 (no).

Here's what some known entries look like.
GAAUUCCUCUGGUUCUACUGGGUUACCUUA    1 (yes)
CUUAUCCUCUGGAUCUUCUGGGUUACCUUA    0 (no)
GAAUUCCUCUGGAUCUACUGGGAUACCAAA    0 (no)

Task: Would you say CAAUUCCUCUGGUUCUACUGGGUUACCUUA shows pre-steady-state target cleavage rate at minimum 0.4?
Output: 1 (yes)

Task: Would you say CAAUUCCUCUGGUUCUACUGGGUUACCUAA shows pre-steady-state target cleavage rate at minimum 0.4?
Output: 1 (yes)

Task: Would you say CUAUUCCUCUGGUUCUACUGGGUUACCUUA shows pre-steady-state target cleavage rate at minimum 0.4?
Output: 0 (no)

Task: Would you say GAAUUCCUCUGGUUCUACUGGGUUACGUAA shows pre-steady-state target cleavage rate at minimum 0.4?
Output: 1 (yes)

Task: Would you say CUUAUCCUCUGGAUCUUCUGGGUUACGUAA shows pre-steady-state target cleavage rate at minimum 0.4?
Output: 1 (yes)

Task: Would you say CUUAUCCUCUGGAUGCUACUGGGUUACCUAA shows pre-steady-state target cleavage rate at minimum 0.4?
Output: 0 (no)

Task: Would you say CAAUUCCUCUGGUCUACUGGGUUACCUAA shows pre-steady-state target cleavage rate at minimum 0.4?
Output: 0 (no)

Task: Would you say CUUUUCCUCUGGAUCUACUGGGAUUCCUAA shows pre-steady-state target cleavage rate at minimum 0.4?
Output: 0 (no)

Task: Would you say CAAUUCCUCUGGUUCUACUGGGUUACGUAA shows pre-steady-state target cleavage rate at minimum 0.4?
Output: 1 (yes)

====

System: MIWI (PIWIL1) piRISC loaded with piRNA #2 (30 nt);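 note: 1 nM active piRISC with 0.1 nM target library at 33 °C single turnover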
Assay: pre-steady-state target cleavage rate (min^-1); higher = faster piRNA-guided slicing of the target
Conditions: guide: piRNA #2 5'p-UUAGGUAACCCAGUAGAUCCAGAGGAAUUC; auxiliary factor: 500 nM mouse GTSF1
Whole data set: some 5,500 sequences, median “pre-steady-state target cleavage rate” near 0.1, cut for the highest 2% near 0.64. The full list was thinned out, with the highest values kept by preference.
Listing of entries alongside the reported pre-steady-state target cleavage rate.
Lab note: record the figure alone, no unit after it.

Some sequences with recorded pre-steady-state target cleavage rate:
CUUUUCCACUCGAUCUACUGGGUUACCUAA    0.547
CAAUUCCACUCGAUCUACUGGGUUACCUAA    0.798
CAAUUCGUCUGGAUCUACUGCGUUACCUAA    0.376
CUUAACCUCUGGAUCUACUGGAGUUACCUAA    0.00317
CUUAAGCUGUGGAUCUACUGGGUUUCCUAA    0.0403

Task: Which pre-steady-state target cleavage rate value is on record for CUUAUCCUCUGGAUCUACUGGAUUACCUAA ?
Output: 0.402

Task: Which pre-steady-state target cleavage rate value is on record for CUUAACCUCUGGAUCUACUGAGUUACCUAA ?
Output: 0.646

Task: Which pre-steady-state target cleavage rate value is on record for CUUAACCUCUGGAUCUACUGGUUACCUAA ?
Output: 0.0564

====

Listing of entries alongside the reported pre-steady-state target cleavage rate.
Tested on: MIWI (PIWIL1) piRISC loaded with piRNA #2 (30 nt);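 note: 1 nM active piRISC with 0.1 nM target library at 33 °C single turnover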
Test: pre-steady-state target cleavage rate (min^-1); higher = faster piRNA-guided slicing of the target
Details: guide: piRNA #2 5'p-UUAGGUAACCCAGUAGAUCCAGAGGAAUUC; auxiliary factor: 500 nM mouse GTSF1
Whole data set: some 5,500 sequences, median “pre-steady-state target cleavage rate” near 0.1, cut for the highest 2% near 0.64. For the sample, the highest values were picked, then their nearest neighbours and some sequences at random.
Lab note: record the figure alone, no unit after it.

Some sequences with recorded pre-steady-state target cleavage rate:
GAAUUCGUCUGGAUCUACUGGGUUAGCUAA    0.293
CUUAACCUCUGGAUCAACUCGGUUACCUAA    0.0679
CUUUUCCUCUGGAUCUACUGCCUUACCUAA    0.0739
CUUUUCCUCUCGAUCUACUGGCUUACCUAA    0.201
CUUAAGGUCUGGAUCUUCUGGGUAACCUAA    0.0193
CUUAAGGUCUGGAUCUACUGGGUUAGCCUAA    0.185

Task: Form field: pre-steady-state target cleavage rate recorded for CUUUUCCACUGGAUCUACAGGGUUACCUAA with MIWI (PIWIL1) piRISC loaded with piRNA #2 (30 nt) (enter value);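 note: 1 nM active piRISC with 0.1 nM target library at 33 °C single turnover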
Output: 0.248

Task: Form field: pre-steady-state target cleavage rate recorded for CUUAAGGUCUUGGAUCUACUGGGUUACCUAA with MIWI (PIWIL1) piRISC loaded with piRNA #2 (30 nt) (enter value)
Output: 0.291

Task: Form field: pre-steady-state target cleavage rate recorded for CAUUUCCUCUGGAUCUACUGGGUUACCUAA with MIWI (PIWIL1) piRISC loaded with piRNA #2 (30 nt) (enter value);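 note: 1 nM active piRISC with 0.1 nM target library at 33 °C single turnover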
Output: 0.541

Task: Form field: pre-steady-state target cleavage rate recorded for CUUAACCUCUGGAUCUACUGGGUUACCGUAA with MIWI (PIWIL1) piRISC loaded with piRNA #2 (30 nt) (enter value)
Output: 0.155

====

System: MIWI (PIWIL1) piRISC loaded with piRNA #2 (30 nt);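 note: 1 nM active piRISC with 0.1 nM target library at 33 °C single turnover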
Assay: pre-steady-state target cleavage rate (min^-1); higher = faster piRNA-guided slicing of the target
Conditions: guide: piRNA #2 5'p-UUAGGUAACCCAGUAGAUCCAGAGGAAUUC; auxiliary factor: 500 nM mouse GTSF1
The full ranking holds about 5,500 sequences; the median of “pre-steady-state target cleavage rate” is about 0.1, and the highest 2% start at about 0.64. The entries come from a sample that favours the highest values as a whole.
property_label: pre-steady-state target cleavage rate
Lab note: record the figure alone, no unit after it.

Some sequences with recorded pre-steady-state target cleavage rate:
CUAUUCCUCUCGAUCUACUGGGUUACCUUA    0.583
GAAUUCCUCUGGAUCUACUGGAGUUACCUAA    0.00576
CUUAUCCUCUGGAUCUACUGGGUUACGUAA    0.684

Switching to the query record.
Task: Which pre-steady-state target cleavage rate value is on record for CAAUUCCUCUAGAUCUACUGGGUUACCUAA ?
Output: 0.807

====

Tested on: MIWI (PIWIL1) piRISC loaded with piRNA #2 (30 nt);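 note: 1 nM active piRISC with 0.1 nM target library at 33 °C single turnover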
Assay: pre-steady-state target cleavage rate (min^-1); MIWI and MILI are mouse PIWI proteins and EfPiwi is from a freshwater sponge; tags in brackets are library labels; higher = faster piRNA-guided slicing of the target;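 note: 1 nM active piRISC with 0.1 nM target library at 33 °C single turnover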
Details: guide: piRNA #2 5'p-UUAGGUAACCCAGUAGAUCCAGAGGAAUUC; auxiliary factor: 500 nM mouse GTSF1
Over roughly 5,500 sequences, “pre-steady-state target cleavage rate” has its median near 0.1; the highest 2% begin near 0.64. This is one part of a sample in which the highest values are shown more often than they occur.
Listing of entries alongside the reported pre-steady-state target cleavage rate.

CUAAUCCUCUGGAUCUACUGGGUUACCUAA    0.412
CUUAAGGACUGGAUCUACUGGGUUACCGUAA    0.0402
CAAUUCCUCUGGAUCUACUCGGUUUCCUAA    0.0763
CAAUUCCUCUGGAUCUUCUGGGUUACCUAA    0.49

Task: Which pre-steady-state target cleavage rate value is on record for CUUAUCCAUCUGGAUCUACUGGGUUACCUAA ?
Output: 0.508

Task: Which pre-steady-state target cleavage rate value is on record for CUAAUCCUCAGGAUCUACUGGGUUACCUAA ?
Output: 0.55

Task: Which pre-steady-state target cleavage rate value is on record for CUUUUCCUCUCGAUCUUCUGGGUUACCUAA ?
Output: 0.63

Task: Which pre-steady-state target cleavage rate value is on record for CAAAUCCUCUGGUUCUACUGGGUUACCUAA ?
Output: 0.79

Task: Which pre-steady-state target cleavage rate value is on record for CAAUUCCUCAGGUUCUACUGGGUUACCUAA ?
Output: 0.709

Task: Which pre-steady-state target cleavage rate value is on record for CAAUUCCUCUCCAUCUACUGGGUUACCUAA ?
Output: 0.829

Task: Which pre-steady-state target cleavage rate value is on record for CUAUUCCUCAGGUUCUACUGGGUUACCUAA ?
Output: 0.584

Task: Which pre-steady-state target cleavage rate value is on record for GAAUUCCUCAGGUUCUACUGGGUUACCUAA ?
Output: 0.539

Task: Which pre-steady-state target cleavage rate value is on record for GAAAUCCUCUGGUUCUACUGGGUUACCUAA ?
Output: 0.624

Task: Which pre-steady-state target cleavage rate value is on record for CUUAAGGAGACCUUCUACAGCGUUACCUAA ?
Output: 0.00566

Task: Which pre-steady-state target cleavage rate value is on record for CUUAAGGACUGGAUUCUACUGGGUUACCUAA ?
Output: 0.0274

Task: Which pre-steady-state target cleavage rate value is on record for CUUUUCCGUCUGGAUCUACUGGGUUACCUAA ?
Output: 0.385

Task: Which pre-steady-state target cleavage rate value is on record for CUAUUCCUCUGGAUCUUCUGGGUUACCUAA ?
Output: 0.412

Task: Which pre-steady-state target cleavage rate value is on record for CUAUUCCUCUGGGAUCUACUGGGUUACCUAA ?
Output: 0.514

Task: Which pre-steady-state target cleavage rate value is on record for CUUUUCCUCUCCAUCUACUGGGUUACCUAA ?
Output: 0.554

Task: Which pre-steady-state target cleavage rate value is on record for GAAAUCCUCAGGAUCUACUGGGUUACCUAA ?
Output: 0.446

Task: Which pre-steady-state target cleavage rate value is on record for CUUAAGGAGAGCGAUCUACUGGGUUACCUAA ?
Output: 0.00514

Task: Which pre-steady-state target cleavage rate value is on record for CUUAACCACUGGAUCUACUCGGUUACCUAA ?
Output: 0.0483

Task: Which pre-steady-state target cleavage rate value is on record for CUAAUCCUCUGGUUCUACUGGGUUACCUAA ?
Output: 0.755
